FYI, the data here is from patent US20210380703A1.

biological target: T1, mouse ACVR2A (mouse, UniProt P27038 20-135, limits assumed); assay: ELISA; note: test concentration or dose not given here
T1 construct: coated antigen of the initial ELISA
T1 sequence (P27038 20-135 limits assumed): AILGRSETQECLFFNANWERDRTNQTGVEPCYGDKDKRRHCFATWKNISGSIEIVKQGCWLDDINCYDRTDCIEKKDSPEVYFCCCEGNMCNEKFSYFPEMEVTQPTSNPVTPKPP
Known optical density of a selection of binders
Give a bare numeral; the unit OD is implied.

368_C08 (antibody, V domains shown, Group III) VH: EVQLLESGGGLVQPGGSLRLSCAASGFTFSDYSMNWVRQAPGKGLEWVSGINYNGGYTSYADSVKGRFTISRDNSKNTLYLQMNSLRAEDTAVYYCARGANWHDTHLDYWGQGTLVTVSS VL: DIQMTQSPSSLSASVGDRVTITCRASQSILTYVNWYQQKPGKAPKLLIYAASSLQSGVPSRFSGSGSGTDFTLTISSLQPEDFATYYCQQSYSTPLTFGGGTKVEIK : 2.43
367_B12 (antibody, V domains shown, Group III) VH: EVQLLESGGGLVQPGGSLRLSCAASGFTFSSYGMHWVRQAPGKGLEWVASINYNGGYKSYADSVKGRFTISRDNSKNTLYLQMNSLRAEDTAVYYCARGANWHDTHLDYWGQGTLVTVSS VL: DIQMTQSPSSLSASVGDRVTITCRASQSILSYVNWYQQKPGKAPKLVIYAATSLASGVPSRFSGSGSGTDFTLTISSLQPEDFATYYCQQSYDTPLTFGGGTKVEIK : 3.03
370_A02 (antibody, V domains shown, Group III) VH: EVQLLESGGGLVQPGGSLRLSCAASGFTFDSYGMNWVRQAPGKGLEWVAGINYNGGYTGYADSVKGRFTISRDNSKNTLYLQMNSLRAEDTAVYYCARGANWHDTALDYWGQGTLVTVSS VL: DIQMTQSPSSLSASVGDRVTITCRASQSIVTYLNWYQQKPGKAPKLVIYAATSRASGVPSRFSGSGSGTDFTLTISSLQPEDFATYYCQQSYDSPLTFGGGTKVEIK : 2.91

The measured optical density associated with 374_G10 (antibody, V domains shown, Group III) VH: EVQLLESGGGLVQPGGSLRLSCAASGFTFSSYSMNWVRQAPGKGLEWVSSINYNSGYTSYADSVKGRFTISRDNSKNTLYLQMNSLRAEDTAVYYCARGANWHDTHLDYWGQGTLVTVSS VL: DIQMTQSPSSLSASVGDRVTITCRASQSIVSYLNWYQQKPGKAPKLVIYAVTSRASGVPSRFSGSGSGTDFTLTISSLQPEDFATYYCQQSYDSPLTFGGGTKVEIK reads 3.74

The measured optical density associated with 367_C07 (antibody, V domains shown, Group III) VH: EVQLLESGGGLVQPGGSLRLSCAASGFTFSSYSMNWVRQAPGKGLEWVSSINYNSGYTGYADSVKGRFTISRDNSKNTLYLQMNSLRAEDTAVYYCARGANWHDTHLDYWGQGTLVTVSS VL: DIQMTQSPSSLSASVGDRVTITCRASQSILTYVNWYQQKPGKAPKLLIYAATSRASGVPSRFSGSGSGTDFTLTISSLQPEDFATYYCQQSYNLPLTFGGGTKVEIK reads 2.52
